# test.protocol: Cytotoxicity (dye uptake cell viability) in the HBV assay
# Assay type: cell-based
# test.conditions: human, HepG2-2.2.15 cells (stable line containing HBV ayw genome), test peptide 10 micrograms per ml
Square brackets hold non-standard residues; d marks the D form. Peptide text beside a SMILES is read from it. pGlu = O=C1CC[C@@H](C(=O)O)N1
property.label: viability at 144 h, 10 micrograms per ml (%)
Give the value in % but do not write % after it.

Data request: Give the measured viability at 144 h, 10 micrograms per ml of CC[C@H](C)[C@H](NC(=O)[C@H](CCCCN)NC(=O)[C@@H]1CCCN1C(=O)[C@H](CCCNC(=N)N)NC(=O)[C@@H]1CCCN1C(=O)[C@@H]1CCCN1C(=O)[C@H](CC(C)C)NC(=O)CNC(=O)[C@@H]1CCC(=O)N1)C(=O)N1CCC[C@H]1C(=O)N1CCC[C@H]1C(=O)O [Bradykinin potentiator B] ([pGlu]GLPPRPKIPP-OH) .
Data returned: 100

====

# test.protocol: Cytotoxicity testing in MRC-5 cells (CellTiter 96)
# Type: cell-based, human
# test.conditions: human, MRC-5 cells (embryonal lung fibroblasts), 6 days incubation, read-out: % Cell viability
Square brackets hold non-standard residues; d marks the D form. Peptide text beside a SMILES is read from it. pGlu = O=C1CC[C@@H](C(=O)O)N1
property.label: viability at 144 h (%)
Give the value in % but do not write % after it.

Data request: Give the measured viability at 144 h of CC[C@H](C)[C@H](NC(=O)[C@H](CCCCN)NC(=O)[C@@H]1CCCN1C(=O)[C@H](CCCNC(=N)N)NC(=O)[C@@H]1CCCN1C(=O)[C@@H]1CCCN1C(=O)[C@H](CC(C)C)NC(=O)CNC(=O)[C@@H]1CCC(=O)N1)C(=O)N1CCC[C@H]1C(=O)N1CCC[C@H]1C(=O)O [Bradykinin potentiator B] ([pGlu]GLPPRPKIPP-OH) .
Data returned: 100

====

# test.protocol: Cytotoxicity (MTS cell viability) in the HIV-1 assay
# test.conditions: human, CEM-SS cells (uninfected drug cytotoxicity wells)
Square brackets hold non-standard residues; d marks the D form. Peptide text beside a SMILES is read from it. pGlu = O=C1CC[C@@H](C(=O)O)N1
property.label: viability at 10 micrograms per ml (%)
Give the value in % but do not write % after it.

Data request: Give the measured viability at 10 micrograms per ml of CC[C@H](C)[C@H](NC(=O)[C@H](CCCCN)NC(=O)[C@@H]1CCCN1C(=O)[C@H](CCCNC(=N)N)NC(=O)[C@@H]1CCCN1C(=O)[C@@H]1CCCN1C(=O)[C@H](CC(C)C)NC(=O)CNC(=O)[C@@H]1CCC(=O)N1)C(=O)N1CCC[C@H]1C(=O)N1CCC[C@H]1C(=O)O [Bradykinin potentiator B] ([pGlu]GLPPRPKIPP-OH) .
Data returned: 100
